test: Solubility of APC in 0.2M phosphate buffers; format: physicochemical; conditions: aqueous buffer, thermodynamic from solid; 0.2M phosphate buffer pH 5.33; pH after equilibration 4.25
Measure Name: solubility
Param answer (str): number followed by unit.

Quick one: solubility for NC(=O)OC[C@H](N)Cc1ccccc1 [APC, (R)-2-amino-3-phenylpropyl carbamate] ?
542 mg/mL

---

assay: Solubility of APC in 0.2M phosphate buffers; assay type: physicochemical; conditions: water or acidic media, water, thermodynamic from solid
Measure Name: solubility

Quick one: solubility for NC(=O)OC[C@H](N)Cc1ccccc1 [APC, (R)-2-amino-3-phenylpropyl carbamate] ?
530 mg/mL

---

assay: Solubility of APC in 0.2M phosphate buffers; type: physicochemical; conditions: 0.2M phosphate buffer, pH 6.8, aqueous buffer, thermodynamic from solid
Measure Name: solubility (mg/mL)
The figure you give is taken to be in mg/mL; do not add the unit.

Quick one: solubility for NC(=O)OC[C@H](N)Cc1ccccc1 [APC, (R)-2-amino-3-phenylpropyl carbamate] ?
26

---

assay: Solubility of APC in 0.2M phosphate buffers; assay type: physicochemical; conditions: aqueous buffer, thermodynamic from solid; 0.2M phosphate buffer pH 5.95; pH after equilibration 4.78
Measure Name: solubility (mg/mL)
The figure you give is taken to be in mg/mL; do not add the unit.

Quick one: solubility for NC(=O)OC[C@H](N)Cc1ccccc1 [APC, (R)-2-amino-3-phenylpropyl carbamate] ?
525

---

assay: Solubility of APC in 0.2M phosphate buffers; format: physicochemical; details: aqueous buffer, thermodynamic from solid; 0.2M phosphate buffer pH 8.99; pH after equilibration 7.55
Measure Name: solubility (mg/mL)
The figure you give is taken to be in mg/mL; do not add the unit.

Quick one: solubility for NC(=O)OC[C@H](N)Cc1ccccc1 [APC, (R)-2-amino-3-phenylpropyl carbamate] ?
22.4

---

assay: Solubility of APC in 0.2M phosphate buffers; assay type: physicochemical; settings: aqueous buffer, thermodynamic from solid; 0.2M phosphate buffer pH 6.97; pH after equilibration 6.76
Measure Name: solubility (mg/mL)
The figure you give is taken to be in mg/mL; do not add the unit.

Quick one: solubility for NC(=O)OC[C@H](N)Cc1ccccc1 [APC, (R)-2-amino-3-phenylpropyl carbamate] ?
26.6
